// reported cell number per item
System: TDF;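 note: TDF denotes transformed human dermal fibroblasts of mesenchymal origin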
Assay: cell number relative to DMSO (% of DMSO); higher = more cells (less growth inhibition / toxicity)
Conditions: concentration: 10 µM; 24 h
READOUT NAME: cell number

>>> print(df.to_string())
                                   compound  quantitative_result
0  CC(=O)OC1C2C(OC(=O)Cc3ccccc3)C(C)CC2(OC(C)=O)C(=O)C(C)=CC2C(CCC13CO3)C2(C)C (stereo not drawn)                  106
1  O=C(Oc1ccc([N+](=O)[O-])cc1)N1CCN(Cc2cccc(Oc3ccccc3)c2)CC1 [4-nitrophenyl 4-(3-phenoxybenzyl)-1-piperazinecarboxylate]                  104
2  Cl.NCCc1ccc(O)cc1 [4-Hydroxyphenethylamine hydrochloride]                  100
3  CC1C(=O)OC2CCN3CC=C(COC(=O)C(C)(O)C1(C)O)C23 (stereo not drawn)                  109
4      CCCN(CCC)C1CCc2ccc(O)cc2C1 (racemic)                  111
5  CCN1CC2(C)CCC(O)C34C5CC6C(OC)CC(O)(C(CC23)C14)C5C6O (stereo not drawn)                 99.5
6              c1cncc(C2CCCCN2)c1 (racemic)                  110
7  CCCn1c(=O)c2[nH]c(C3CCCC3)nc2n(CCCOC(=O)c2ccc(S(=O)(=O)F)cc2)c1=O                  110
